Listed compounds paired with reported IC50
- Assay system: PLK4 (h) (Homo sapiens, UniProt O00444)
- Sequence (O00444 whole entry): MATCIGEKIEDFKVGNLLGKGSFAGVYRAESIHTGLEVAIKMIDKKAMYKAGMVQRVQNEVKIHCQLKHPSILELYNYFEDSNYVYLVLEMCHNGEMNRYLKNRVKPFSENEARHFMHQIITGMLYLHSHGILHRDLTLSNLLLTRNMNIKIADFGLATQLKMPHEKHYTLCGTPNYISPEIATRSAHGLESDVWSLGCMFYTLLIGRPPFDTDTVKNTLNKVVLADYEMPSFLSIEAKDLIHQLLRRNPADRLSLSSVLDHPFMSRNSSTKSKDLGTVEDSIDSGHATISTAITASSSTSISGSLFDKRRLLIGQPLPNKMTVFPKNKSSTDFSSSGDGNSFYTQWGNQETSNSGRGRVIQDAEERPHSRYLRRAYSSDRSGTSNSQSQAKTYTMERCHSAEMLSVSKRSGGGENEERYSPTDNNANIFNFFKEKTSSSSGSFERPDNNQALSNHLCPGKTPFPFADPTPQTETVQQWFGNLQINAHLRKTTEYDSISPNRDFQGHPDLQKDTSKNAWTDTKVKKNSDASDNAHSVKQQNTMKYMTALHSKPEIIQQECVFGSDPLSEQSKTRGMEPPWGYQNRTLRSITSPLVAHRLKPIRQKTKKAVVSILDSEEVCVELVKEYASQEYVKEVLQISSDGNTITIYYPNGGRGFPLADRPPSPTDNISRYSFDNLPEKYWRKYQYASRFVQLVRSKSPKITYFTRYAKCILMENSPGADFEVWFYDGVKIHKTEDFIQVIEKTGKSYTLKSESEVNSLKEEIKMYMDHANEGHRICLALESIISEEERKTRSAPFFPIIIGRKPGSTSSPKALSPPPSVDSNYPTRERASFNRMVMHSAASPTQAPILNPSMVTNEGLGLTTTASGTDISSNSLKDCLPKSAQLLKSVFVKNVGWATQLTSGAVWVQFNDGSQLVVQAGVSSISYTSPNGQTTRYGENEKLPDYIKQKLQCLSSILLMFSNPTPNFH
- Test description: PLK-4 human kinase inhibition, scintillation proximity assay (SPA)
- Assay type: biochemical
- Measurement conditions: read-out: PLK4 pIC50 (converted)
Give just the numeric value; µM need not be written.

Compound smiles	Experimental value
COc1cc2cc(c1)Nc1nccc(n1)-c1ccc(cc1)CN(C)CCNC(=O)[C@@H]1CCCN1C2	1.15

// IC50 lookup, key: `C[C@@H]1NCc2ccc(Cl)c(c2)Nc2nccc(n2)-c2cccc(c2)CNC1=O`
1.02

Request: `COc1ccc2cc1CNCCCNC(=O)CN1CCN(CC1)Cc1cc(ccc1N1CCOCC1)Nc1nccc-2n1`
0.49

* * *

- Test system: MDA-MB-231
- Test description: Cellular proliferation assay (Alamar blue), MDA-MB-231
- Format: cell-based
- Measurement conditions: Homo sapiens, 10% FCS, 72 hours with compound, Alamar blue 24 h, read-out: MDA/MB231 (cellular proliferation assay, Table 4) (converted)
Observed property: IC50 (µM)
Report the figure in µM without appending any unit label.

Compound smiles	Assay system	Uom	IC50
CN1CCC(NC(=O)c2ccc3cc2CN2CCC[C@H]2C(=O)NCc2cccc(c2)-c2ccnc(n2)N3)CC1	MDA-MB-231	µM	5.13
O=C1NCc2cc(ccc2N2CCOCC2)Nc2nccc(n2)-c2cccc(c2)CCN2CCC[C@@H]12	MDA-MB-231	µM	5.62

Which measured IC50 value corresponds to `COc1ccc2cc1CN(C)CCNC(=O)CN1CCN(CC1)Cc1cc(NCCc3ccccc3)cc(c1)Nc1nccc-2n1` ?
5.89

* * *

- Assay system: CDK1/CyclinB (h) (Homo sapiens)
- Sequence (P06493 whole entry): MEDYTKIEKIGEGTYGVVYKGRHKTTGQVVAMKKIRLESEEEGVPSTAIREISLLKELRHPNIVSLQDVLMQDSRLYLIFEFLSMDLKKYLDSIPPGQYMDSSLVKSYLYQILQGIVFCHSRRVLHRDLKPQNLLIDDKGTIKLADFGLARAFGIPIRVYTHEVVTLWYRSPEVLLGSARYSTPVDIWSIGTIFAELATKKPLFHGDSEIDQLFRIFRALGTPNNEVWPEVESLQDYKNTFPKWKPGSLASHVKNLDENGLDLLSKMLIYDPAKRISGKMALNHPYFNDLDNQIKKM
- Sequence (P14635 whole entry partner): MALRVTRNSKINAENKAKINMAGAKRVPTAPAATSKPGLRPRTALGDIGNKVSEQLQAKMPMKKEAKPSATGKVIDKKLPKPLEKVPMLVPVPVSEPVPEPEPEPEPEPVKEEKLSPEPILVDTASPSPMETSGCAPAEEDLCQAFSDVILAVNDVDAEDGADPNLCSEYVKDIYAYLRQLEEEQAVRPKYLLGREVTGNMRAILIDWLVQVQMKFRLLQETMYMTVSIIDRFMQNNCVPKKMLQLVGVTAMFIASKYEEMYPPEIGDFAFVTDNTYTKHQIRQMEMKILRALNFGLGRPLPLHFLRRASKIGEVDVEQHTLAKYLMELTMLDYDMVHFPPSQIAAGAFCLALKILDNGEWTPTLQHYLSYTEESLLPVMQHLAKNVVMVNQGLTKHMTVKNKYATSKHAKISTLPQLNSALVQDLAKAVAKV
- Test description: CDK1/CyclinB human kinase inhibition, Invitrogen's FRET assay (Z'lyte)
- Assay type: biochemical
- Measurement conditions: read-out: CDK1 pIC50 (converted)
Item-by-item account of IC50

Dear colleague, I am looking for the recorded IC50 of the following molecule: `O=C1NCCOc2cccc(c2)-c2ccnc(n2)Nc2ccc(N3CCOCC3)c(c2)CN2CCC1CC2`
> 10 µM

Next record, please: `COc1ccc2cc1CN(C)CCNC(=O)[C@@H]1CCCN1Cc1cc(Br)cc(c1)Nc1nccc-2n1`
> 10 µM

Lookup `COc1ccc2cc1CN(C)CCNC(=O)C1CCN(CC1)Cc1cccc(c1)Nc1nccc-2n1`
> 10 µM

Similarly, `COc1cc2cc(c1)Nc1nccc(n1)-c1ccc(OC)c(c1)CN(C)CCNC(=O)[C@H](CO)NC2` ?
> 10 µM

* * *

- Assay system: CDK4/CyclinD1 (h) (Homo sapiens)
- Sequence (P11802 whole entry): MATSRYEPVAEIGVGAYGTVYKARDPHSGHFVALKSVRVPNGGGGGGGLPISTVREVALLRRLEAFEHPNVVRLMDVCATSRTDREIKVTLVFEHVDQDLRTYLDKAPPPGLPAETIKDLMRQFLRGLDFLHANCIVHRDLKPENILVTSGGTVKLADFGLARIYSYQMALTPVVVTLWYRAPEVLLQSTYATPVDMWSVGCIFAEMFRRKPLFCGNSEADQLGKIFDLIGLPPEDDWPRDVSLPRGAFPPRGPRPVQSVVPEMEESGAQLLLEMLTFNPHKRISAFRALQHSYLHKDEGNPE
- Sequence (P24385 whole entry partner): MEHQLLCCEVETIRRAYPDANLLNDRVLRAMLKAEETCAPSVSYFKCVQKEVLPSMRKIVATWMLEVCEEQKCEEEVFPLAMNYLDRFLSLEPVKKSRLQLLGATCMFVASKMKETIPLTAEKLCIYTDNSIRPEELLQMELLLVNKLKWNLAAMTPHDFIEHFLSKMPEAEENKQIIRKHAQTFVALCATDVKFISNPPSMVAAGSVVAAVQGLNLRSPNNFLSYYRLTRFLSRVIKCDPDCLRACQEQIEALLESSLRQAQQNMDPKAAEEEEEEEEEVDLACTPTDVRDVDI
- Test description: CDK4/CyclinD1 human kinase inhibition, SPA with GST-pRb substrate
- Type: biochemical
- Measurement conditions: read-out: CDK4 pIC50 (converted)
Measured IC50 accompanies every entry in the list below.

Dear colleague, I am looking for the recorded IC50 of the following molecule: `CN1CCCNC(=O)C2CCN(CC2)Cc2cc(cc(N3CCOCC3)c2)Nc2nccc(n2)-c2ccc(cc2)C1`
> 10 µM

Could you do the same for `O=C1NCc2cccc(c2)-c2ccnc(n2)Nc2cccc(c2)CN2CCC[C@@H]12` , please?
> 10 µM

Also check `CN1CCNC(=O)CN2CCN(CC2)Cc2cc(cc(N3CCOCC3)c2)Nc2nccc(n2)-c2ccc(cc2)C1`
> 10 µM

* * *

- Assay system: GSK3β (h) (Homo sapiens, UniProt P49841)
- Sequence (P49841 whole entry): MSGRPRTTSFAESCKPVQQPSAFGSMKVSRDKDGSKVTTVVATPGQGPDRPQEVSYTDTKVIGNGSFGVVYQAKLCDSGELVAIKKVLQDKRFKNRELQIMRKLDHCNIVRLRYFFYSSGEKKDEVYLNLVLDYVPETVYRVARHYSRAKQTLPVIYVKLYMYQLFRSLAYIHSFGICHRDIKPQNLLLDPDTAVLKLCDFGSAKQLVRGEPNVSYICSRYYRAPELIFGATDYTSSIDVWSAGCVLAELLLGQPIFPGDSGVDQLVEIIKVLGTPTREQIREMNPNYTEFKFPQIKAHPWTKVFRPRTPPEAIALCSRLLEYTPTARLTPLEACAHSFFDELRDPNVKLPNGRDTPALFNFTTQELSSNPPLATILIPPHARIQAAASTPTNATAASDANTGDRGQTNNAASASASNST
- Test description: GSK-3β human kinase inhibition, SPA
- Assay type: biochemical
- Measurement conditions: read-out: GSK3b pIC50 (converted)
Observed property: IC50 (µM)
Report only the number, with the unit µM understood.

Compound smiles	Assay system	IC50 (µM)
O=C1NCc2cccc(c2)-c2ccnc(n2)Nc2cc(ccc2Cl)CN[C@H]1CO	GSK3β (h) (Homo sapiens, UniProt P49841)	6.61
O=C1NCc2cccc(c2)-c2ccnc(n2)Nc2ccc(N3CCOCC3)c(c2)CN[C@H]1Cc1ccccc1	GSK3β (h) (Homo sapiens, UniProt P49841)	0.389
CC(C)Nc1cc2cc(c1)Nc1nccc(n1)-c1ccc(cc1)CN(C)CCNC(=O)[C@@H]1CCCN1C2	GSK3β (h) (Homo sapiens, UniProt P49841)	3.24

Moving on to another compound below.
Tell me reported IC50 for `COc1cc2cc(c1)Nc1nccc(n1)-c1ccc(OC)c(c1)CN(C)CCNC(=O)C1CCN(CC1)C2` , tested with GSK3β (h) (Homo sapiens, UniProt P49841).
3.09

* * *

Listing of recorded IC50 by entry.
- Assay system: GSK3β (h) (Homo sapiens)
- Test description: GSK-3β human kinase inhibition, SPA
- Type: biochemical
- Measurement conditions: read-out: GSK3b pIC50 (converted)
Provide the reading as a plain figure in µM.

Below, each entry is followed by its recorded IC50 result.
Compound smiles	Experimental value
CN1CCN(Cc2cc3cc(c2)Nc2nccc(n2)-c2cccc(c2)CNC(=O)[C@@H]2CCCN2C3)CC1	0.112
C[C@@H]1NCc2cc(ccc2N2CCOCC2)Nc2nccc(n2)-c2ccc(cc2)OCCCNC1=O	0.135

# next molecule below
Entry under review: `COc1ccc2cc1CN(C)CCNC(=O)CN1CCN(CC1)Cc1cc(Br)cc(c1)Nc1nccc-2n1` . Reported IC50?
5.13

* * *

- Assay system: GSK3β (h) (Homo sapiens, UniProt P49841)
- Test description: GSK-3β human kinase inhibition, SPA
- Type: biochemical
- Measurement conditions: read-out: GSK3b pIC50 (converted)
Observed property: log10(IC50) (log10 of the value in µM)
Heads up: the numbers are on a log10 scale; they represent IC50 in µM.

# lookup: log10(IC50) of `O=C1NCCNc2cc(ccn2)-c2ccnc(n2)Nc2ccc(N3CCOCC3)c(c2)CN2CCC1CC2`
0.19

Likewise for `COc1ccc2cc1CN(C)CCNC(=O)C1CCN(CC1)Cc1cc(Br)cc(c1)Nc1nccc-2n1` ?
-0.08

Next compound: `O=C1NCc2cccc(c2)-c2ccnc(n2)Nc2cc(ccc2Cl)CN2CCC1CC2`
0.44

// repeat for `COc1ccc2cc1CN(C)CCCNC(=O)CN1CCN(CC1)Cc1cc(cc(NC(C)C)c1)Nc1nccc-2n1` and report
0.73

* * *

- Assay system: GSK3β (h) (Homo sapiens, UniProt P49841)
- Test description: GSK-3β human kinase inhibition, SPA
- Type: biochemical
- Measurement conditions: read-out: GSK3b pIC50 (converted)
Readings of IC50 for the listed compounds

Compound smiles	Observed property	Experimental value
COc1ccc2cc1CN(C)CCNC(=O)CN1CCN(CC1)Cc1cccc(c1)Nc1nccc-2n1	IC50	> 10 µM

Can you look up the measured IC50 of `COc1ccc2cc1CN(C)CCNC(=O)CN1CCN(CC1)Cc1cc(cc(N3CCOCC3)c1)Nc1nccc-2n1` for me?
> 10 µM

Query `COc1ccc2cc1CN(C)CCCNC(=O)CN1CCN(CC1)Cc1cc(cc(N3CCOCC3)c1)Nc1nccc-2n1` next
> 10 µM

* * *

- Tested on: HCT-116
- Test description: Cellular proliferation assay (Alamar blue), HCT-116
- Format: cell-based
- Measurement conditions: Homo sapiens, 10% FCS, 72 hours with compound, Alamar blue 4 h
Observed property: pIC50
Remember the convention: pIC50 equals -log10 of concentration in molar.

Below are worked cases with known answers.
Compound smiles	Assay system	Experimental value
COc1ccc2cc1CN1CCN(CC1)CC(=O)N(C)CCN(C)c1ccc(cn1)-c1ccnc(n1)N2	HCT-116	5.23
COc1ccc2cc1CN(C)CCNC(=O)[C@H](C)NCc1cc(ccc1N1CCOCC1)Nc1nccc-2n1	HCT-116	5.39
CN1CCN(C(=O)c2cc3cc(c2)Nc2nccc(n2)-c2cccc(c2)CNC(=O)[C@@H]2CCCN2C3)CC1	HCT-116	5.23

Please report the recorded pIC50 for `O=C1NCCCOc2cccc(c2)-c2ccnc(n2)Nc2ccc(N3CCOCC3)c(c2)CN[C@H]1Cc1ccccc1` .
5.21

* * *

In this section we review reported IC50 values for a set of compounds.
- Assay system: UniProtKB Q9NYY3
- Sequence (Q9NYY3 whole entry): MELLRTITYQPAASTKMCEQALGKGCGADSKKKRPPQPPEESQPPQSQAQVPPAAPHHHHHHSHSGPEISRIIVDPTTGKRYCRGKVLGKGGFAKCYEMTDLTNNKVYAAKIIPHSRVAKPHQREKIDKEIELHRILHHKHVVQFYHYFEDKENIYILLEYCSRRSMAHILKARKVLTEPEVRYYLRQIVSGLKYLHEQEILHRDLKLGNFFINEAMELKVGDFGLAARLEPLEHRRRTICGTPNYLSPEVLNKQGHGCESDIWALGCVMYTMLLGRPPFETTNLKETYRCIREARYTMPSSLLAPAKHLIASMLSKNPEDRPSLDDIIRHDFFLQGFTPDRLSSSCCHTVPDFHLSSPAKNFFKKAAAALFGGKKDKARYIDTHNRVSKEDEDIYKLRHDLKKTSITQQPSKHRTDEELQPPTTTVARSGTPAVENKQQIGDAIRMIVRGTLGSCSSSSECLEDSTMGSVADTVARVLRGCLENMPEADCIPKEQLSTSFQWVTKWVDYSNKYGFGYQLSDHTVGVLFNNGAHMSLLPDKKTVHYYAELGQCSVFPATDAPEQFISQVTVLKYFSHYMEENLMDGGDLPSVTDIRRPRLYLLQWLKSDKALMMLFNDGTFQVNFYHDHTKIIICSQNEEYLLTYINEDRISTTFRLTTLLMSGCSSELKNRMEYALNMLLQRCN
- Test description: PLK2 human kinase inhibition, SPA
- Assay type: biochemical
- Measurement conditions: read-out: PLK2 pIC50 (converted)

Here are 5 compounds together with their reported answers.
Compound	Observed property	Experimental value
CC(C)Nc1cc2cc(c1)Nc1nccc(n1)-c1ccc(cc1)CN(C)CCCNC(=O)[C@@H]1CCCN1C2 [Compound 151]	IC50	> 3.02 µM
COc1ccc2cc1CN(C)CCNC(=O)C1CCN(CC1)Cc1cc(Br)cc(c1)Nc1nccc-2n1 [Compound 79]	IC50	> 10 µM
O=C1CN2CCN(CC2)Cc2cc(ccc2N2CCOCC2)Nc2nccc(n2)-c2cccc(c2)OCCCN1 [Compound 103]	IC50	> 10 µM
COc1ccc2cc1CN(C)CCNC(=O)CN1CCN(CC1)Cc1cc(NCCc3ccccc3)cc(c1)Nc1nccc-2n1 [Compound 138]	IC50	> 3.02 µM
O=C1NCCCc2cc(ccn2)-c2ccnc(n2)Nc2cccc(c2)CN[C@H]1CO [Compound 19]	IC50	> 10 µM

Which IC50 reading was recorded for the compound CN(C)C(=O)c1cc2cc(c1)Nc1nccc(n1)-c1cccc(c1)CNC(=O)[C@@H]1CCCN1C2 [Compound 35] ?
> 10 µM

Next compound up: O=C(NC1CCOCC1)c1ccc2cc1CN1CCC[C@H]1C(=O)NCc1cccc(c1)-c1ccnc(n1)N2 [Compound 46]
> 10 µM

Then O=C1NCc2cccc(c2)-c2ccnc(n2)Nc2cc(cc(C(=O)N3CCOCC3)c2)CN2CCC[C@@H]12 [Compound 32] ?
> 10 µM

Another compound to look at: CN1CCCNC(=O)[C@@H]2CCCN2Cc2cc(Br)cc(c2)Nc2nccc(n2)-c2ccc(cc2)C1 [Compound 159]
> 10 µM

Follow-up entry: CN1CCNC(=O)C2CCN(CC2)Cc2cc(Br)cc(c2)Nc2nccc(n2)-c2ccc(cc2)C1 [Compound 60]
> 10 µM

Same for COc1ccc2cc1CN(C)CCCNC(=O)CN1CCN(CC1)Cc1cc(cc(N3CCOCC3)c1)Nc1nccc-2n1 [Compound 141]
> 10 µM

What do you get for COc1cc2cc(c1)Nc1nccc(n1)-c1ccc(cc1)CN(C)CCCNC(=O)C1CCN(CC1)C2 [Compound 66] ?
> 3.02 µM

Entry to check: COc1cc2cc(c1OC)CNC(=O)[C@H](CO)NCc1cccc(c1)-c1ccnc(n1)N2 [Compound 8]
3.63 µM

Try this compound next: COc1ccc2cc1CN(C)CCCNC(=O)CN1CCN(CC1)Cc1cccc(c1)Nc1nccc-2n1 [Compound 146]
> 10 µM

And then COc1ccc2cc1CN(C)CCNC(=O)C1CCN(CC1)Cc1cc(cc(N3CCOCC3)c1)Nc1nccc-2n1 [Compound 77] , what is it?
> 10 µM

Moving on to O=C1NCc2cccc(c2)-c2ccnc(n2)Nc2ccc(C(=O)N3CCOCC3)c(c2)CN2CCC[C@@H]12 [Compound 26]
> 10 µM
